System: wheat
ASSAY METHOD TEXT: Crop safety test (pot culture method)
Type: in vivo
CONDITIONS: dose 150 g/ha, plants with about 4-5 leaves, investigated 15 days later
ASSAY READOUT: inhibition ratio, Wheat (crop safety) (%)
Reply numerically in %, unit not repeated.

q: // returns reported inhibition ratio, Wheat (crop safety) for input CC(C)c1ccccc1-n1c(=O)c2cc(C(=O)C3=C(O)CCCC3=O)ccc2n(C)c1=O
a: 10

q: // returns reported inhibition ratio, Wheat (crop safety) for input Cc1cccc(C)c1-n1c(=O)c2cc(C(=O)C3=C(O)CCCC3=O)ccc2n(C)c1=O
a: 5

q: // returns reported inhibition ratio, Wheat (crop safety) for input CCc1ccccc1-n1c(=O)c2cc(C(=O)C3=C(O)CCCC3=O)ccc2n(C)c1=O
a: 0

q: // returns reported inhibition ratio, Wheat (crop safety) for input CCn1c(=O)n(-c2ccccc2C)c(=O)c2cc(C(=O)C3=C(O)CC(C)CC3=O)ccc21 (stereo not drawn)
a: 10

q: // returns reported inhibition ratio, Wheat (crop safety) for input Cn1c(=O)n(-c2ccccc2Cl)c(=O)c2cc(C(=O)C3=C(O)CCCC3=O)ccc21
a: 0

q: // returns reported inhibition ratio, Wheat (crop safety) for input Cc1ccccc1-n1c(=O)c2cc(C(=O)C3=C(O)CC(C)(C)CC3=O)ccc2n(C)c1=O
a: 0

q: // returns reported inhibition ratio, Wheat (crop safety) for input Cc1c(C(=O)C2=C(O)CC(C)(C)CC2=O)ccc2c1c(=O)n(-c1ccccc1C(F)(F)F)c(=O)n2C
a: 10

q: // returns reported inhibition ratio, Wheat (crop safety) for input CS(=O)(=O)c1ccc(C(=O)C2C(=O)CCCC2=O)c([N+](=O)[O-])c1 [Mesotrione, mesotrione, reference compound]
a: 40

q: // returns reported inhibition ratio, Wheat (crop safety) for input Cn1c(=O)n(-c2ccccc2Cl)c(=O)c2cc(C(=O)C3=C(O)CC(C)(C)CC3=O)ccc21
a: 0

q: // returns reported inhibition ratio, Wheat (crop safety) for input Cc1ccccc1-n1c(=O)c2cc(C(=O)C3=C(O)CCCC3=O)ccc2n(C)c1=O
a: 0

q: // returns reported inhibition ratio, Wheat (crop safety) for input CCn1c(=O)n(-c2ccccc2C)c(=O)c2cc(C(=O)C3=C(O)CCCC3=O)ccc21
a: 10

q: // returns reported inhibition ratio, Wheat (crop safety) for input Cn1c(=O)n(-c2cccc(Br)c2)c(=O)c2cc(C(=O)C3=C(O)CCCC3=O)ccc21
a: 5

These measurements were taken from patent US9771334B2.
